# subject.of.test: EPHB2 (UniProt P29323)
# Sequence (P29323 whole entry, looked up): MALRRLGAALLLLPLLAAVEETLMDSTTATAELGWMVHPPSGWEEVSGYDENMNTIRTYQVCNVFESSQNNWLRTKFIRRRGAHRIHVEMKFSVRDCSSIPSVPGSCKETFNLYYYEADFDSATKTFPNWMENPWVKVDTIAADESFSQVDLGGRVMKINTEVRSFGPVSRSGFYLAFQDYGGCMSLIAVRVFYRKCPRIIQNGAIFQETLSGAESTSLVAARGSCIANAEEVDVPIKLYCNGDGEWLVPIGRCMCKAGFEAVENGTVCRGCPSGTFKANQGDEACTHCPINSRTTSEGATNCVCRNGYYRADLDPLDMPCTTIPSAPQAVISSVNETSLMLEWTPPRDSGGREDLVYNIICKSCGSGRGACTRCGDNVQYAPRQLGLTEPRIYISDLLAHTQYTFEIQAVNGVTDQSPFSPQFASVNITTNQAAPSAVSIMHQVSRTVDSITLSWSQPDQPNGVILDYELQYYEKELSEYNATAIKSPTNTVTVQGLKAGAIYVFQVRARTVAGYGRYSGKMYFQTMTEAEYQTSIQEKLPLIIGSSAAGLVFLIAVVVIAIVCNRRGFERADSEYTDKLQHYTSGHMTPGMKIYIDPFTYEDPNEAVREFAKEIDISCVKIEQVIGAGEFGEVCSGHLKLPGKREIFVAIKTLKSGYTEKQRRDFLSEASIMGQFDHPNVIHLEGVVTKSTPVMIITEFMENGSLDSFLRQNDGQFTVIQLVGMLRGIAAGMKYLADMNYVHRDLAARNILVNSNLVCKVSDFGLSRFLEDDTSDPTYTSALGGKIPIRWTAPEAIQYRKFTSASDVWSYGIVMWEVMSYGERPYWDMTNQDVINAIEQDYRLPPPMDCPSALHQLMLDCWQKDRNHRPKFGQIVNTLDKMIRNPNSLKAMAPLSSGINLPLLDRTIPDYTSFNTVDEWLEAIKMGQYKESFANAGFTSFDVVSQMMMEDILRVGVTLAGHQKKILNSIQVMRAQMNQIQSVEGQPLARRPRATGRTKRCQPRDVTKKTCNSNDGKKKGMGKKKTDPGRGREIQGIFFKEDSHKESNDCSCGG
# protocol.description: phosphorylation enrichment, bacterial display (enrichment ratio); higher = better substrate or ligand; peptides without Tyr show the background;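 further: 11-residue human phosphosite peptides and single-mutation variants displayed on the E. coli surface, counted by deep sequencing, each peptide's frequency after selection divided by its frequency in the unselected input library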;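 further: frequency after pTyr selection over input frequency; kinase dosed for 20-30% of maximal phosphorylation in three min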
Kindly supply the reported phosphorylation enrichment values for the records listed here.
Could you respond with only the numeric value?

Item under review: PLTRSYIREKV [CYP2C8_Y243_A238P] . Reported phosphorylation enrichment?
0.484

Item under review: MMVGAYSTLEG [ECPAS_Y470] . Reported phosphorylation enrichment?
0.545

Item under review: ANNPLYKEATP [ITGB3_Y773_S778P] . Reported phosphorylation enrichment?
0.533

Item under review: PLQKTYNYNML [SLC4A1_Y553_V557M] . Reported phosphorylation enrichment?
1.03

Item under review: VTRKEYFIFLE [CAMKV_Y95] . Reported phosphorylation enrichment?
0.554

Item under review: ECKLFYSRKEG [PTPN11_Y263_L262F] . Reported phosphorylation enrichment?
0.451

Item under review: RALRHYFKLNI [ETV6_Y401_YF] . Reported phosphorylation enrichment?
0.358

Item under review: FDGKDYIALNE [HLA-A_Y147_YF] . Reported phosphorylation enrichment?
0.704

Item under review: LAARFYNWVSF [FLT4_Y1231_YF] . Reported phosphorylation enrichment?
0.605

Item under review: SVMAEYGLFRA [VSX2_Y219_G223R_YF] . Reported phosphorylation enrichment?
0.513

Item under review: RLLVVYPSTQR [HBB_Y36_W38S] . Reported phosphorylation enrichment?
0.931

Item under review: `GFIISYREEEQ` . Reported phosphorylation enrichment?
0.5

Item under review: CNPRRYPVLMS [OR2T1_Y182_L180R] . Reported phosphorylation enrichment?
0.496

Item under review: MANFVYKAGPS [MAML2_Y515_M514V_YF] . Reported phosphorylation enrichment?
0.553

Item under review: GCRSKSVGLWG [KCNQ1_Y184_Y184S] . Reported phosphorylation enrichment?
0.488

Item under review: ILGRTHYVNHE [NEDD4_Y627_Y627H] . Reported phosphorylation enrichment?
0.671

Item under review: LEEFQYIGELQ [MSH2_Y856_S860L] . Reported phosphorylation enrichment?
0.788

Item under review: EQDRAYLEGTC [HLA-C_Y183_L180D] . Reported phosphorylation enrichment?
0.574

Item under review: STTIHYNFMCN [TP53_Y234_C229S_YF] . Reported phosphorylation enrichment?
0.605

Item under review: SHISGYATLRR [RAPH1_Y1226] . Reported phosphorylation enrichment?
0.391

----------
# subject.of.test: Jak2 (UniProt O60674)
# Sequence (O60674 whole entry, looked up): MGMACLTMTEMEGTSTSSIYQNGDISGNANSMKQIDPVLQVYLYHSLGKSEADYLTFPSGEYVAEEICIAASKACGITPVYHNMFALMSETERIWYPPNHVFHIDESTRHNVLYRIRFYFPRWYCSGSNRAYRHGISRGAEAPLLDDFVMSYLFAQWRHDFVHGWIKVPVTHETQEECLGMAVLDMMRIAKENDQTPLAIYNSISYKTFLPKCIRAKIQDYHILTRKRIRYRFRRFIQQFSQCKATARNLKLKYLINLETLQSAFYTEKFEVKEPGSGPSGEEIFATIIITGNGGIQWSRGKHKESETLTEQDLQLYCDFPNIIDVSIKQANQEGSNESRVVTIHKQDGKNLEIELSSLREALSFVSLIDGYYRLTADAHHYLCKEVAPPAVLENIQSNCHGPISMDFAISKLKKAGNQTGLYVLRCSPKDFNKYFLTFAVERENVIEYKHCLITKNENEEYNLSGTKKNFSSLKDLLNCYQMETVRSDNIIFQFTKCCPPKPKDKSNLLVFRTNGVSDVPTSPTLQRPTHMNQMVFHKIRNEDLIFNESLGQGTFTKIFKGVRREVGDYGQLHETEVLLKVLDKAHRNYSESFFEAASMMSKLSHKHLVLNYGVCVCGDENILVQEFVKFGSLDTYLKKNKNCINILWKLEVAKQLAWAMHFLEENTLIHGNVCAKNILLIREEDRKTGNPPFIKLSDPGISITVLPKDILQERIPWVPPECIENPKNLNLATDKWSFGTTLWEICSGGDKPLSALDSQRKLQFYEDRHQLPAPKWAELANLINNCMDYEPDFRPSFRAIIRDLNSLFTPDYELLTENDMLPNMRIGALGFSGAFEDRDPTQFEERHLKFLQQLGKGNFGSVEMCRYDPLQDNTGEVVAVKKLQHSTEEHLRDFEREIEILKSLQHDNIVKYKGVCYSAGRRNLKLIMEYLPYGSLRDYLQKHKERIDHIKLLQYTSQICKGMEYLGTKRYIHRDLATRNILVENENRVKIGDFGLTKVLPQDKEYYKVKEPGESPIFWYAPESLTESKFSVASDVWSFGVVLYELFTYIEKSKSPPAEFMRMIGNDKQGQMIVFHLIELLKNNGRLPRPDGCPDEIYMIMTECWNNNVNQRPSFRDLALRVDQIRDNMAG
# protocol.description: phosphorylation enrichment, bacterial display (enrichment ratio); higher = better substrate or ligand; peptides without Tyr show the background
Rule: MET for phosphorylation enrichment not less than 1, NOT MET for anything less.

Please indicate if the recorded phosphorylation enrichment for CEHRGFLFLAI [TEK_Y897_Y897F_YF] meets or exceeds 1.
MET

Please indicate if the recorded phosphorylation enrichment for GVTLLCFGRFN [ADGRD1_Y85_Y85C_YF] meets or exceeds 1.
MET

Please indicate if the recorded phosphorylation enrichment for QSRSPYSSRHS [CDK13_Y415_R410Q] meets or exceeds 1.
NOT MET

Please indicate if the recorded phosphorylation enrichment for LEEFQYIGELQ [MSH2_Y856_S860L] meets or exceeds 1.
MET

Please indicate if the recorded phosphorylation enrichment for LSVISYDLGMF [GBA3_Y174_M172I] meets or exceeds 1.
MET

Please indicate if the recorded phosphorylation enrichment for AVLALHNSTRD [TGFB1_Y81_Y81H] meets or exceeds 1.
NOT MET

Please indicate if the recorded phosphorylation enrichment for PAIFTYDEFKK [COL8A2_Y648_T645I_YF] meets or exceeds 1.
MET

Please indicate if the recorded phosphorylation enrichment for QNVADYMRFLM [RPL5_Y207_YF] meets or exceeds 1.
MET

Please indicate if the recorded phosphorylation enrichment for DVQNAYDSNHC [ZFYVE16_Y36] meets or exceeds 1.
NOT MET

Please indicate if the recorded phosphorylation enrichment for EQKKYYNAMKK [SCN5A_Y1495] meets or exceeds 1.
NOT MET

Please indicate if the recorded phosphorylation enrichment for RHPFFYAPELL [ALB_Y174_YF] meets or exceeds 1.
MET

Please indicate if the recorded phosphorylation enrichment for PLDGEYFSLQI [TP53_Y327_T329S] meets or exceeds 1.
MET

Please indicate if the recorded phosphorylation enrichment for IVRSPYEDLED [VHL_Y185_L184P] meets or exceeds 1.
MET

Please indicate if the recorded phosphorylation enrichment for IEKLTYIDKWF [CPS1_Y872] meets or exceeds 1.
NOT MET

Please indicate if the recorded phosphorylation enrichment for TVEDHDFEGGI [TKT_Y563_Y563D_YF] meets or exceeds 1.
MET

Please indicate if the recorded phosphorylation enrichment for EIVHRYVELLD [AP1S3_Y87] meets or exceeds 1.
NOT MET

Please indicate if the recorded phosphorylation enrichment for CITIHYNYMCN [TP53_Y234_T230I] meets or exceeds 1.
NOT MET

Please indicate if the recorded phosphorylation enrichment for KLSCSYSHLSA [C4BPA_Y470_W473L] meets or exceeds 1.
MET

Please indicate if the recorded phosphorylation enrichment for LYRYGYANTSE [SI_Y1233_C1229Y] meets or exceeds 1.
NOT MET

Please indicate if the recorded phosphorylation enrichment for FGVTLYPNSGE [MEP1A_Y472_R476G] meets or exceeds 1.
MET

Please indicate if the recorded phosphorylation enrichment for VVKLTYNENDN [CAMKK2_Y183_A182T] meets or exceeds 1.
NOT MET

Please indicate if the recorded phosphorylation enrichment for RRIHSHRGHLW [VHL_Y112_Y112H] meets or exceeds 1.
NOT MET

Please indicate if the recorded phosphorylation enrichment for AKLKDYYIFNK [CCDC42_Y149] meets or exceeds 1.
NOT MET

Please indicate if the recorded phosphorylation enrichment for EFSNQYKATIG [RAB7A_Y37_K32E] meets or exceeds 1.
NOT MET

Please indicate if the recorded phosphorylation enrichment for MDDPRYGVCPL [ZNF100_Y6_M8V] meets or exceeds 1.
MET

Please indicate if the recorded phosphorylation enrichment for FMMMRYSQNIR [SDAD1_Y656_V660I] meets or exceeds 1.
NOT MET

Please indicate if the recorded phosphorylation enrichment for FRVDCYKNFVA [FHL1_Y213_C209R_YF] meets or exceeds 1.
MET

Please indicate if the recorded phosphorylation enrichment for NSFKYYMSDDI [ATRX_Y204_C200S] meets or exceeds 1.
NOT MET

Please indicate if the recorded phosphorylation enrichment for PQGVRYTYTID [DCX_Y103_I104T] meets or exceeds 1.
MET

Please indicate if the recorded phosphorylation enrichment for AHDGEYGAEAL [HBA1_Y25_A22D] meets or exceeds 1.
NOT MET

Please indicate if the recorded phosphorylation enrichment for CTTIHYNDMCN [TP53_Y234_Y236D] meets or exceeds 1.
NOT MET

Please indicate if the recorded phosphorylation enrichment for YSPYDYQPCLA [TNS1_Y798] meets or exceeds 1.
MET

Please indicate if the recorded phosphorylation enrichment for CNPRRYPVLMS [OR2T1_Y182_L180R] meets or exceeds 1.
NOT MET

Please indicate if the recorded phosphorylation enrichment for QGGRCYMMIVD [GAA_Y438_R437C] meets or exceeds 1.
MET

Please indicate if the recorded phosphorylation enrichment for PLQSEYSSITT [ITGB4_Y1760] meets or exceeds 1.
NOT MET

Please indicate if the recorded phosphorylation enrichment for AVDDKYSRREE [SART1_Y685_I681V] meets or exceeds 1.
NOT MET

Please indicate if the recorded phosphorylation enrichment for TEFIQYMRRKN [MAX_Y73_YF] meets or exceeds 1.
NOT MET

Please indicate if the recorded phosphorylation enrichment for MAQDIYRASYY [ALK_Y1278_R1275Q] meets or exceeds 1.
NOT MET

Please indicate if the recorded phosphorylation enrichment for PVQAAYQKVVA [HBB_Y131] meets or exceeds 1.
NOT MET

Please indicate if the recorded phosphorylation enrichment for DRLASYRDKVR [KRT12_Y139_L140R] meets or exceeds 1.
NOT MET

Please indicate if the recorded phosphorylation enrichment for MSLPGYKLVTG [GJA1_Y286_P283L] meets or exceeds 1.
NOT MET

Please indicate if the recorded phosphorylation enrichment for MTFMFYRENLR [NLRP14_Y443_V441M_YF] meets or exceeds 1.
MET

Please indicate if the recorded phosphorylation enrichment for ASFGPNTRVQS [FOXL2_Y258_Y258N_YF] meets or exceeds 1.
NOT MET

Please indicate if the recorded phosphorylation enrichment for EILLSDLRTGF [TGM1_Y365_Y365D_YF] meets or exceeds 1.
NOT MET

Please indicate if the recorded phosphorylation enrichment for `PGVNYYFRVSA` meets or exceeds 1.
MET

Please indicate if the recorded phosphorylation enrichment for FSKTQYNQVPR [CXADR_Y318_S323R_YF] meets or exceeds 1.
NOT MET

Please indicate if the recorded phosphorylation enrichment for PLTRSYIREKV [CYP2C8_Y243_A238P] meets or exceeds 1.
NOT MET

Please indicate if the recorded phosphorylation enrichment for YECKWYIPLTD [BCR_Y756_D752E] meets or exceeds 1.
MET

Please indicate if the recorded phosphorylation enrichment for ADEDIYGVLPA [LYNtide_2014] meets or exceeds 1.
MET

Please indicate if the recorded phosphorylation enrichment for HLEKKYVHRDS [CSF1R_Y708_R710H] meets or exceeds 1.
NOT MET
